The entries below come with measured percent inhibition of PKK at 0.56 μM values attached.
- Tested on: human PKK mRNA
- assay procedure: Dose-dependent antisense inhibition of human PKK in HepaRG cells, 0.19-5.00 uM (Example 5)
- Format: cell-based
- measurement conditions: Table 34; 0.56 μM, HepaRG, electroporation, ~16 h
Strand notation (5' to 3'): a small letter for the sugar, then the base; units joined by * are phosphorothioate-linked, units joined directly phosphodiester-linked; [ ] holds rarer units or linkages, { } end groups; capitals alone tell only the bases. e = 2'-O-(2-methoxyethyl) (MOE); [5mC] = 5-methylcytosine; d = 2'-deoxy (DNA)
Write the value in % as a bare number.

- substance: "546846 (e[5mC]*eT*eG*eT*e[5mC]*d[5mC]*dT*dA*dT*dA*dT*d[5mC]*dA*d[5mC]*dT*eG*eT*e[5mC]*e[5mC]*eT; antisense) [compound 546846]"
  val: 45
- substance: "546827 (e[5mC]*eA*eG*eT*eA*dT*d[5mC]*dA*d[5mC]*dT*dG*dT*dA*d[5mC]*dT*eA*eG*eT*eT*eT; antisense) [compound 546827]"
  val: 70
- substance: "546825 (eG*eT*eA*eT*e[5mC]*dA*d[5mC]*dT*dG*dT*dA*d[5mC]*dT*dA*dG*eT*eT*eT*e[5mC]*e[5mC]; antisense) [compound 546825]"
  val: 73

Pending substance:
Quick check: percent inhibition of PKK at 0.56 μM of 531231 (eT*eA*eT*e[5mC]*eA*d[5mC]*dT*dG*dT*dA*d[5mC]*dT*dA*dG*dT*eT*eT*e[5mC]*e[5mC]*eT) [compound 531231] ?
30

---

- Test system: human PKK mRNA
- assay procedure: Antisense inhibition of human PKK mRNA in HepaRG cells, 1,000 nM, MOE/deoxy/cEt oligonucleotides (Example 3)
- Type: cell-based
- measurement conditions: HepaRG cells, electroporation with 1,000 nM antisense oligonucleotide, approximately 24 hours, primer probe set RTS3454, relative to untreated control cells; experiment of Table 23
Strand notation (5' to 3'): a small letter for the sugar, then the base; units joined by * are phosphorothioate-linked, units joined directly phosphodiester-linked; [ ] holds rarer units or linkages, { } end groups; capitals alone tell only the bases. e = 2'-O-(2-methoxyethyl) (MOE); k = constrained ethyl (cEt); [5mC] = 5-methylcytosine; d = 2'-deoxy (DNA)
Binary call on % inhibition: satisfied from 20% upward, not satisfied beneath that.

Examples with answers:
- substance: "547951 (eA*eG*kA*dT*dA*dT*dG*dG*dT*dG*dT*dT*dT*kT*k[5mC]*eT; antisense) [compound 547951]"
  measured on: "human PKK mRNA"
  class: "satisfied"
- substance: "547967 (antisense eG*eG*k[5mC]*dA*dG*dG*dG*dT*dT*d[5mC]*dA*dG*dG*kT*kA*eA) [compound 547967]"
  measured on: "human PKK mRNA"
  class: "satisfied"
- substance: "547959 (eG*e[5mC]*kA*dG*dG*dT*dT*dA*dA*dA*dA*dG*dG*k[5mC]*kT*eA; antisense) [compound 547959]"
  measured on: "human PKK mRNA"
  class: "satisfied"
- substance: "547942 (eG*eG*kT*dG*dT*dG*d[5mC]*d[5mC]*dA*d[5mC]*dT*dT*dT*k[5mC]*kA*eG; antisense) [compound 547942]"
  measured on: "human PKK mRNA"
  class: "satisfied"

Entry 531231 (eT*eA*eT*e[5mC]*eA*d[5mC]*dT*dG*dT*dA*d[5mC]*dT*dA*dG*dT*eT*eT*e[5mC]*e[5mC]*eT) [compound 531231] : is its % inhibition no less than 20%?
not satisfied

Entry 547991 (antisense eT*eA*k[5mC]*dA*dG*dT*d[5mC]*dT*dT*d[5mC]*dT*dG*dG*kG*kA*eG) [compound 547991] : is its % inhibition no less than 20%?
not satisfied

---

- Tested on: human PKK mRNA
- assay procedure: Antisense inhibition of human PKK mRNA in HepaRG cells, 1,000 nM, MOE/deoxy/cEt oligonucleotides (Example 3)
- Assay type: cell-based
- measurement conditions: Table 28; HepaRG cells, 1,000 nM antisense oligonucleotide; human PKK mRNA
Strand notation (5' to 3'): a small letter for the sugar, then the base; units joined by * are phosphorothioate-linked, units joined directly phosphodiester-linked; [ ] holds rarer units or linkages, { } end groups; capitals alone tell only the bases. e = 2'-O-(2-methoxyethyl) (MOE); k = constrained ethyl (cEt); [5mC] = 5-methylcytosine; d = 2'-deoxy (DNA)
Binary call on % inhibition: T from 40% upward, F beneath that.

- substance: "548489 (antisense eT*eT*k[5mC]*d[5mC]*d[5mC]*d[5mC]*dA*dG*dA*dG*dG*dT*dG*kA*kT*eA) [compound 548489]"
  class: "F"
- substance: "548512 (antisense eT*e[5mC]*k[5mC]*dG*d[5mC]*d[5mC]*dT*dT*dT*dG*dG*dA*dT*kA*k[5mC]*eT) [compound 548512]"
  class: "T"
- substance: "548468 (e[5mC]*eA*kA*d[5mC]*dA*dT*d[5mC]*dA*d[5mC]*dT*dG*dT*dA*k[5mC]*k[5mC]*eT; antisense) [compound 548468]"
  class: "F"
- substance: "547747 (eT*e[5mC]*kA*d[5mC]*dT*dG*dT*dA*d[5mC]*dT*dA*dG*dT*kT*kT*e[5mC]) [compound 547747]"
  class: "T"
- substance: "548492 (antisense eG*e[5mC]*k[5mC]*d[5mC]*dA*dA*dT*dG*dT*d[5mC]*d[5mC]*dT*dA*kA*k[5mC]*e[5mC]) [compound 548492]"
  class: "T"

Entry 548508 (antisense eG*e[5mC]*kA*d[5mC]*d[5mC]*dA*d[5mC]*d[5mC]*dA*dT*dG*d[5mC]*dG*kG*kT*eT) [compound 548508] : is its % inhibition no less than 40%?
T

Entry 548467 (e[5mC]*eA*kT*d[5mC]*dA*d[5mC]*dT*dG*dT*dA*d[5mC]*d[5mC]*dT*kA*kT*eA; antisense) [compound 548467] : is its % inhibition no less than 40%?
F

Entry 548481 (eG*eT*kT*d[5mC]*d[5mC]*d[5mC]*dT*dG*dA*dG*dG*dA*dA*k[5mC]*kG*eG; antisense) [compound 548481] : is its % inhibition no less than 40%?
F

Entry 548531 (antisense eG*eT*k[5mC]*dA*dG*dA*dA*dG*dG*d[5mC]*d[5mC]*dT*d[5mC]*kT*kT*eA) [compound 548531] : is its % inhibition no less than 40%?
F

Entry 548472 (e[5mC]*e[5mC]*k[5mC]*dA*dA*dT*dA*d[5mC]*dA*dG*dG*dG*d[5mC]*k[5mC]*kA*eG; antisense) [compound 548472] : is its % inhibition no less than 40%?
F

Entry 548504 (antisense eG*e[5mC]*kA*dG*d[5mC]*dG*dA*dG*d[5mC]*dA*dT*dT*d[5mC]*k[5mC]*kA*eA) [compound 548504] : is its % inhibition no less than 40%?
F

---

- Tested on: human PKK mRNA
- assay procedure: Antisense inhibition of human PKK mRNA in HepaRG cells, 1,000 nM, MOE/deoxy/cEt oligonucleotides (Example 3)
- Assay type: cell-based
- measurement conditions: HepaRG cells, electroporation with 1,000 nM antisense oligonucleotide, approx. 24 hours, PKK mRNA by RT-PCR (RTS3454), relative to untreated control cells; Table 26 experiment
Strand notation (5' to 3'): a small letter for the sugar, then the base; units joined by * are phosphorothioate-linked, units joined directly phosphodiester-linked; [ ] holds rarer units or linkages, { } end groups; capitals alone tell only the bases. e = 2'-O-(2-methoxyethyl) (MOE); k = constrained ethyl (cEt); [5mC] = 5-methylcytosine; d = 2'-deoxy (DNA)
test readout: % inhibition (%)
Write the value in % as a bare number.

Solved cases (3 shown):
- substance: "548232 (eG*e[5mC]*k[5mC]*dA*dT*dA*d[5mC]*dA*dT*d[5mC]*dT*dG*dA*kG*kG*eA; antisense) [compound 548232]"
  % inhibition / %: 3
- substance: "548265 (antisense e[5mC]*e[5mC]*kT*d[5mC]*dT*dT*dG*dA*dT*dT*dT*dG*dG*kG*k[5mC]*eA) [compound 548265]"
  % inhibition / %: 85
- substance: "548262 (antisense e[5mC]*e[5mC]*kT*dA*dT*d[5mC]*d[5mC]*dG*dT*dG*dT*dT*d[5mC]*kA*kG*e[5mC]) [compound 548262]"
  % inhibition / %: 73

Quick check: % inhibition of 548230 (eT*eA*k[5mC]*dT*d[5mC]*dA*dT*dT*dG*dT*dT*dG*dT*kG*kT*eG; antisense) [compound 548230] ?
10

Quick check: % inhibition of 548301 (e[5mC]*e[5mC]*kT*dA*dG*dT*dA*d[5mC]*dA*dA*dA*dG*dT*kG*kG*e[5mC]; antisense) [compound 548301] ?
65

Quick check: % inhibition of 548278 (antisense eG*eG*kT*dT*d[5mC]*d[5mC]*d[5mC]*dT*dA*dG*d[5mC]*dG*dG*kT*k[5mC]*e[5mC]) [compound 548278] ?
74
